Listed here are compounds together with their documented TGI.
- Tested on: EKVX NSCLC
- ASSAY_NAME: NCI tumour cell line growth inhibition, 48 h

COMPOUND	TARGET_ENTITY	MEASUREMENT_LABEL	TEST_VALUE
C=C1C(=O)C23CC1CCC2C12CO[C@H](O)[C@H]1C(C)(C)[C@H](OC(C)=O)C[C@H]2OC3=O (stereo partly drawn)	EKVX NSCLC	TGI	29.1 µM
CCCC(=O)Nc1ccc(O)c2c1C1CCCCCC21 (stereo not drawn)	EKVX NSCLC	TGI	> 100 µM
NC(N)=NCCN1CCCCCc2ccccc21	EKVX NSCLC	TGI	> 10 µM
O=C1c2ccccc2CC12CCC1(CC2)OCCO1	EKVX NSCLC	TGI	> 100 µM

In the following, a different compound is considered.
Let me know recorded TGI for "Cc1c(C)n(COCCO)c2ncnc(N)c12" , thanks.
> 100 µM

----------
- Test system: HCT-15 colon
- ASSAY_NAME: NCI tumour cell line growth inhibition, 48 h
Listed here are molecules together with their documented TGI.

Examples with their reported TGI follow.
MOLECULE	TARGET_ENTITY	TGI
Cc1ccc(S(=O)(=O)NC2CCCCO2)cc1 (stereo unspecified)	HCT-15 colon	> 100 µM
c1ccc(P2c3ccccc3Nc3ccccc32)cc1	HCT-15 colon	> 100 µM
COc1ccc(CNc2cnc3ccc(N)cc3n2)cc1OC	HCT-15 colon	> 100 µM
COc1cc(Br)c(CC2C3=C(CCN2C(=O)C2CCC2)CC2(CC3)OCCO2)cc1O (stereo unspecified)	HCT-15 colon	> 100 µM
Cc1ccc2c(/C=C/c3ccc(N(C)C)cc3)ccnc2c1C	HCT-15 colon	> 100 µM

Let me know recorded TGI for "CC(=O)OCc1cc(=O)n2c([nH]c3ccccc32)c1C#N" , thanks.
> 100 µM

Let me know recorded TGI for "COCCOc1nc(-c2ccccc2)nc2ccccc12" , thanks.
43.3 µM

Let me know recorded TGI for "CN1CCN(Cc2nc3cccc4c3c([n+]2[O-])-c2ccccc2-4)CC1" , thanks.
> 100 µM

----------
- Test system: IGROV1 ovarian
- ASSAY_NAME: NCI tumour cell line growth inhibition, 48 h
MEASUREMENT_LABEL: TGI

Examples with their reported TGI follow.
MOLECULE	TARGET_ENTITY	MEASUREMENT_LABEL	TEST_VALUE
[N-]=[N+]=Nc1ncnc2c1sc(=S)n2-c1ccccc1	IGROV1 ovarian	TGI	> 100 µM
O=C(O)CCC1(C(=O)O)CCC(=O)c2ccccc21 (stereo not drawn)	IGROV1 ovarian	TGI	> 100 µM
CCCCCCCCCCCCC(CC)CCCCC(=O)O (stereo not drawn)	IGROV1 ovarian	TGI	> 100 µM
CC1(CO)OC(n2cnc3c(N)ncnc32)C(O)C1O (stereo not drawn)	IGROV1 ovarian	TGI	> 100 µM
O=C1C(c2ccccc2)=[N+]([O-])c2ccc(Cl)cc21	IGROV1 ovarian	TGI	57 µM
O=C([CH-]C(=O)C(F)(F)F)c1ccccc1.O=C([CH-]C(=O)C(F)(F)F)c1ccccc1.[O]=[U+2]=[O]	IGROV1 ovarian	TGI	> 100 µM
CCOP(=O)(OCC)C(C)(C)OC(=O)NC(F)(F)F	IGROV1 ovarian	TGI	> 100 µM
CS(=O)(=O)Nc1ccc2c(c1)N(S(C)(=O)=O)CC2COS(C)(=O)=O (stereo not drawn)	IGROV1 ovarian	TGI	> 100 µM

Let me know recorded TGI for "Cc1cccc(-n2cnc3cc(C(=O)N4CCCCC4)ccc32)c1" , thanks.
> 100 µM

Let me know recorded TGI for "O=C1c2ccccc2CC12CCC1(CC2)OCCO1" , thanks.
> 100 µM

Let me know recorded TGI for "N/N=c1\c2ccccc2c2ccc3c4ccccc4/c(=N\N)c3c12" , thanks.
> 100 µM
